- Experiment summary: qHTS of pediatric cancer cell lines to identify multiple opportunities for drug repurposing: Confirmatory screen for RD cells (AID 1347124);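 note: cells exposed to compound for 48 h before viability readout; nearly all actives have a fitted effect of over 65% in size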
- Condition: RD rhabdomyosarcoma cell viability; series mostly up to 45.9 µM
Records with an inconclusive call do not appear. Activity calls are given as the source filed them. Calls come from the whole dose curve; as a rule, active = well fitted cell-killing curve with a large enough effect; inconclusive = small, poorly fitted or top-dose-only effect, or effect the other way; inactive = no such curve, though single readings can be large or run the other way.
Please state which outcome applies, choosing from t for active, f for inactive

# example entries with known answers
[[record]]
compound = "O=P1(NCCCl)OCCCN1CCCl (centres undefined)"
answer_label = "f"

[[record]]
compound = "Cn1c(CCCC(=O)O)nc2cc(N(CCCl)CCCl)ccc21"
answer_label = "f"

[[record]]
compound = "C[C@@H]1[C@@H](C(=O)C[C@H]2O[C@@H]3O[C@]4(C)CC[C@@H]5[C@H](C)CC[C@@H]([C@H]2C)[C@@]35OO4)O[C@@H]2O[C@]3(C)CC[C@H]4[C@H](C)CC[C@@H]1[C@@]24OO3"
answer_label = "t"


Attention now shifts to the item below.
Which outcome did this test record for the compound `C[C@@H]1O[C@@H](O[C@H]2C[C@@H](O)[C@]3(CO)[C@H]4[C@H](O)C[C@]5(C)[C@@H](C6=CC(=O)OC6)CC[C@]5(O)[C@@H]4CC[C@]3(O)C2)[C@H](O)[C@H](O)[C@H]1O` ?
t

====

- Condition: Ebola virus entry assay, green fluorescence channel
Measured potencies and affinities stand elsewhere.
API: label(entry) gives 1 if the entry's efficacy is strictly smaller than -10%; on equality or larger values it gives 0.

[[record]]
molecule = "CCC(C(N)=O)N1CCCC1=O (stereo unspecified)"
answer_label = 1

[[record]]
molecule = "O=C1Cc2cc(CCN3CCN(c4nsc5ccccc45)CC3)c(Cl)cc2N1"
answer_label = 0

[[record]]
molecule = "c1ccc(C2CC2)c(OCC2=NCCN2)c1"
answer_label = 0

[[record]]
molecule = "CCCC(C)(COC(N)=O)COC(=O)NC(C)C (stereo unspecified)"
answer_label = 0

[[record]]
molecule = "O=c1c(O)c(-c2ccc(O)c(O)c2)oc2cc(O)cc(O)c12"
answer_label = 1

[[record]]
molecule = "CCC(C)(C)C(=O)O[C@H]1C[C@@H](C)C=C2C=C[C@H](C)[C@H](CC[C@@H]3C[C@@H](O)CC(=O)O3)[C@H]21"
answer_label = 0


Threshold test, efficacy < -10%: `Cc1nc2n(c(=O)c1CCN1CCC(c3noc4cc(F)ccc34)CC1)CCC[C@H]2O`
0

Threshold test, efficacy < -10%: `Cc1ncc(CNC(=O)N(CCCl)N=O)c(N)n1`
0

Threshold test, efficacy < -10%: `Nc1[nH]c(=O)ncc1F`
0

Threshold test, efficacy < -10%: `O=NN(CCCl)C(=O)NCCCl`
1

Threshold test, efficacy < -10%: NC1[C@H]2CN(c3nc4c(cc3F)c(=O)c(C(=O)O)cn4-c3ccc(F)cc3F)C[C@@H]12 (stereo partly specified)
1

Threshold test, efficacy < -10%: `O=c1[nH]cc(F)c(=O)[nH]1`
0

====

- System: P94_40
- Experiment summary: qHTS profiling for inhibitors of Plasmodium falciparum proliferation (AID 504749); note: nearly all actives have a fitted effect of over 60% in size
- Condition: P. falciparum in erythrocytes, SYBR Green DNA, 72 h; series mostly up to 28.7 µM
Inconclusive results are not listed. The source made the active and inactive calls. The call rests on the fitted dose curve; in most records, active means well fitted inhibition curve with a large enough effect; inconclusive means small, poorly fitted or top-dose-only effect; inactive means flat fitted curve, though single readings scatter.
Please state which outcome applies, choosing from Y for active, N for inactive

# example entries with known answers
[[record]]
compound = "N#CC(C#N)=Cc1ccc(O)c(O)c1"
answer_label = "N"

[[record]]
compound = "C=C1CC[C@@]2(O)[C@H]3Cc4ccc(O)c5c4[C@@]2(CCN3CC2CC2)[C@H]1O5"
answer_label = "N"

[[record]]
compound = "CCCC(C)(COC(N)=O)COC(=O)NC(C)C (configuration not stated)"
answer_label = "N"

[[record]]
compound = "CCN(CC)CCOC(=O)C(O)(c1ccccc1)c1ccccc1"
answer_label = "N"

[[record]]
compound = "CC[N+](CC)(CC)CC"
answer_label = "N"

[[record]]
compound = "Cc1ccc(S(=O)(=O)N[C@@H](CCCCN)C(=O)CCl)cc1"
answer_label = "Y"

[[record]]
compound = "OCCOc1ccccc1"
answer_label = "N"

[[record]]
compound = "c1ccc2c(c1)OCC(C1=NCCN1)O2 (configuration not stated)"
answer_label = "N"


Which outcome did this test record for the compound `CN(C)CCc1ccc(O)cc1` ?
N

Which outcome did this test record for the compound O=C(NC(O)C(Cl)(Cl)Cl)NC(O)C(Cl)(Cl)Cl (configuration not stated) ?
N

Which outcome did this test record for the compound `CN1C[C@H](CNC(=O)OCc2ccccc2)C[C@@H]2c3cccc4c3c(cn4C)C[C@H]21` ?
Y

Which outcome did this test record for the compound `FC(F)(F)c1cccc(C2=CCN(CCc3ccc4ccccc4c3)CC2)c1` ?
N

====

- Experiment summary: qHTS Assay for Identifying Gametocytocidal Compounds (AID 743244);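 note: % is set by controls: 0 for no effect and ±100 for the full control effect; actives lower the fluorescent signal which means gametocytes are killed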
- Condition: P. falciparum 3D7 stage III-V gametocytes, alamarBlue, 72 h; stronger effect = lower value
Results filed as inconclusive are left out. Activity calls are given as the source filed them. The call rests on the fitted dose curve; in most records, active means well fitted curve in the direction sought with a large enough effect; inconclusive means small, poorly fitted or top-dose-only effect, or another doubt; inactive means no such curve, though single readings can be large or run the other way.
Assay readout: max response

For orientation, consider the following solved cases.
[[record]]
molecule = "CNC(=O)c1ccc(N2C(=S)N(c3ccc(C#N)c(C(F)(F)F)c3)C(=O)C23CCC3)cc1F"
assay_readout = "max response"
observed_value = "-1.03% (inactive)"

[[record]]
molecule = "NCC1(CC(=O)O)CCCCC1"
assay_readout = "max response"
observed_value = "10.3% (inactive)"

[[record]]
molecule = "CC[N+]1(C)CCCC(OC(=O)C(O)(c2ccccc2)c2ccccc2)C1 (configuration not stated)"
assay_readout = "max response"
observed_value = "-8.23% (inactive)"


For the molecule CCC(C(N)=O)N1CCCC1=O (configuration not stated) , what max response is on record?
-7.9% (inactive)

For the molecule `O=C(O)c1ccc2[nH]cc(CCCCN3CC=C(c4ccccc4)CC3)c2c1` , what max response is on record?
-6.11% (inactive)

For the molecule `Cc1sc2c(c1C)C(c1ccc(Cl)cc1)=N[C@@H](CC(=O)OC(C)(C)C)c1nnc(C)n1-2` , what max response is on record?
-19.5% (inactive)

For the molecule `C[C@]12C/C(=C/O)C(=O)C[C@@H]1CC[C@@H]1[C@@H]2CC[C@@]2(C)[C@H]1CC[C@]2(C)O` , what max response is on record?
18.9% (inactive)

For the molecule CCC(COC(=O)c1cc(OC)c(OC)c(OC)c1)(c1ccccc1)N(C)C (configuration not stated) , what max response is on record?
10.7% (inactive)

For the molecule `CN1CCN(C(=O)O[C@H]2c3nccnc3C(=O)N2c2ccc(Cl)cn2)CC1` , what max response is on record?
-4.73% (inactive)

====

- Experiment summary: Cell Viability - LYMP1-003 - Assay at 24 hr (AID 963);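 note: plate controls were DMSO only for no effect and tetraoctylammonium bromide positive control for full effect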
- Condition: LYMP1-003 lymphoblastoid cell viability; series mostly up to 92.2 µM
Active and inactive are the calls of the source. The call rests on the fitted dose curve; in most records, active means well fitted cell-killing curve with a large enough effect; inconclusive means small, poorly fitted or top-dose-only effect; inactive means flat fitted curve, though single readings scatter.
Assay readout: outcome

For orientation, consider the following solved cases.
[[record]]
molecule = "Oc1ccccc1-c1ccccc1"
assay_readout = "outcome"
observed_value = "inactive"

[[record]]
molecule = "CCCC(C)(COC(N)=O)COC(=O)NC(C)C (stereo not given)"
assay_readout = "outcome"
observed_value = "inactive"

[[record]]
molecule = "CNCC(O)c1ccc(O)cc1 (stereo not given)"
assay_readout = "outcome"
observed_value = "inactive"

[[record]]
molecule = "OCCOc1ccccc1"
assay_readout = "outcome"
observed_value = "inactive"


For the molecule `N[C@@H](Cc1ccc(N(CCCl)CCCl)cc1)C(=O)O` , what outcome is on record?
inactive

====

- Target or test system: Metallo-beta-lactamase type 2 (Klebsiella pneumoniae)
- Experiment summary: qHTS to identify inhibitors of the New Delhi Metallo-beta-lactamase (NDM): assay validation screen against the NCATS LOPAC Collection (AID 1794843);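 note: nitrocefin turnover by NDM-1 measured as 485 nm absorbance at plateau; % is set by controls: 0 for no effect and ±100 for the full control effect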
- Condition: NDM-1 enzyme, nitrocefin hydrolysis, absorbance 485 nm; series mostly up to 38.4 µM
Results filed as inconclusive are left out. Active and inactive are the calls of the source. Calls come from the whole dose curve; as a rule, active = well fitted curve in the direction sought with a large enough effect; inconclusive = small, poorly fitted or top-dose-only effect, or another doubt; inactive = no such curve, though single readings can be large or run the other way.
Assay readout: outcome

For orientation, consider the following solved cases.
[[record]]
compound = "CNCC(O)c1ccc(O)cc1 (centres undefined)"
assay_readout = "outcome"
observed_value = "inactive"

[[record]]
compound = "COc1ccc(C(CN(C)C)C2(O)CCCCC2)cc1 (centres undefined)"
assay_readout = "outcome"
observed_value = "inactive"

[[record]]
compound = "NN=C(N)N"
assay_readout = "outcome"
observed_value = "inactive"

[[record]]
compound = "CC(C)=CCOc1c2occc2cc2ccc(=O)oc12"
assay_readout = "outcome"
observed_value = "inactive"

[[record]]
compound = "Nc1ccncc1"
assay_readout = "outcome"
observed_value = "inactive"

[[record]]
compound = "O=c1[nH]c2ccccc2n1CCCN1CCC(n2c(=O)[nH]c3cc(Cl)ccc32)CC1"
assay_readout = "outcome"
observed_value = "inactive"

[[record]]
compound = "NCC(O)c1ccc(O)cc1 (centres undefined)"
assay_readout = "outcome"
observed_value = "inactive"

[[record]]
compound = "NCC1(CC(=O)O)CCCCC1"
assay_readout = "outcome"
observed_value = "inactive"

[[record]]
compound = "CC(O)(CS(=O)(=O)c1ccc(F)cc1)C(=O)Nc1ccc(C#N)c(C(F)(F)F)c1 (centres undefined)"
assay_readout = "outcome"
observed_value = "inactive"

[[record]]
compound = "CC[C@@H](CO)NC(=O)[C@@H]1C=C2c3cccc4[nH]cc(c34)C[C@H]2N(C)C1"
assay_readout = "outcome"
observed_value = "inactive"


For the compound `c1ccc(C2CC2)c(OCC2=NCCN2)c1` , what outcome is on record?
inactive

For the compound `COc1ccccc1N1CCNCC1` , what outcome is on record?
inactive

For the compound CCC1(C2=NCCN2)Cc2ccccc2O1 (centres undefined) , what outcome is on record?
inactive

For the compound `CC[C@@H](CO)NC(=O)[C@@H]1C=C2c3cccc4c3c(cn4C)C[C@H]2N(C)C1` , what outcome is on record?
inactive
